Data provenance is paper PMC4007590.

# study-target: tyrosyl-DNA phosphodiesterase 1 (TDP1) (Homo sapiens)
# Construct: catalytic domain of human TDP1
# Sequence (Q9NUW8 149-608 limits assumed): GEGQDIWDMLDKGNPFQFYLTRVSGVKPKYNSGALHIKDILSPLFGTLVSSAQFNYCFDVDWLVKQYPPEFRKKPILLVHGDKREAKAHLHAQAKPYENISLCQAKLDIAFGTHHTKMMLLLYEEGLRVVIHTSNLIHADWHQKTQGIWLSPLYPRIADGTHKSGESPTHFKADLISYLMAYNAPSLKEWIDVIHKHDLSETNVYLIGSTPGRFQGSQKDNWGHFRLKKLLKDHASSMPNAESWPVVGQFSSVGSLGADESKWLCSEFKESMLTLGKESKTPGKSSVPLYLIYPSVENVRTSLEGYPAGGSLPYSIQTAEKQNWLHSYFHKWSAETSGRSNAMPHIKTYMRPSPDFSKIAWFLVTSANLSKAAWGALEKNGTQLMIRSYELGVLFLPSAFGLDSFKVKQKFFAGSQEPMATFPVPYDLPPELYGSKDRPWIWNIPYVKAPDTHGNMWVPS
# protocol-details: Gyrasol fluorescence quench assay, FITC-phosphotyrosyl […]mer oligonucleotide substrate, recombinant TDP1
# Assay type: biochemical
value-type: IC50 (µM)
Express your answer in µM, writing the number without its unit.

input: Return reported IC50; argument: [O]=[V]([OH])([OH])[OH] [sodium orthovanadate]
output: 4
